Entries and their measured pIC50 follow.
# subjectOfTest: ncNOS (Homo sapiens, UniProt P29475)
# Sequence (P29475 whole entry): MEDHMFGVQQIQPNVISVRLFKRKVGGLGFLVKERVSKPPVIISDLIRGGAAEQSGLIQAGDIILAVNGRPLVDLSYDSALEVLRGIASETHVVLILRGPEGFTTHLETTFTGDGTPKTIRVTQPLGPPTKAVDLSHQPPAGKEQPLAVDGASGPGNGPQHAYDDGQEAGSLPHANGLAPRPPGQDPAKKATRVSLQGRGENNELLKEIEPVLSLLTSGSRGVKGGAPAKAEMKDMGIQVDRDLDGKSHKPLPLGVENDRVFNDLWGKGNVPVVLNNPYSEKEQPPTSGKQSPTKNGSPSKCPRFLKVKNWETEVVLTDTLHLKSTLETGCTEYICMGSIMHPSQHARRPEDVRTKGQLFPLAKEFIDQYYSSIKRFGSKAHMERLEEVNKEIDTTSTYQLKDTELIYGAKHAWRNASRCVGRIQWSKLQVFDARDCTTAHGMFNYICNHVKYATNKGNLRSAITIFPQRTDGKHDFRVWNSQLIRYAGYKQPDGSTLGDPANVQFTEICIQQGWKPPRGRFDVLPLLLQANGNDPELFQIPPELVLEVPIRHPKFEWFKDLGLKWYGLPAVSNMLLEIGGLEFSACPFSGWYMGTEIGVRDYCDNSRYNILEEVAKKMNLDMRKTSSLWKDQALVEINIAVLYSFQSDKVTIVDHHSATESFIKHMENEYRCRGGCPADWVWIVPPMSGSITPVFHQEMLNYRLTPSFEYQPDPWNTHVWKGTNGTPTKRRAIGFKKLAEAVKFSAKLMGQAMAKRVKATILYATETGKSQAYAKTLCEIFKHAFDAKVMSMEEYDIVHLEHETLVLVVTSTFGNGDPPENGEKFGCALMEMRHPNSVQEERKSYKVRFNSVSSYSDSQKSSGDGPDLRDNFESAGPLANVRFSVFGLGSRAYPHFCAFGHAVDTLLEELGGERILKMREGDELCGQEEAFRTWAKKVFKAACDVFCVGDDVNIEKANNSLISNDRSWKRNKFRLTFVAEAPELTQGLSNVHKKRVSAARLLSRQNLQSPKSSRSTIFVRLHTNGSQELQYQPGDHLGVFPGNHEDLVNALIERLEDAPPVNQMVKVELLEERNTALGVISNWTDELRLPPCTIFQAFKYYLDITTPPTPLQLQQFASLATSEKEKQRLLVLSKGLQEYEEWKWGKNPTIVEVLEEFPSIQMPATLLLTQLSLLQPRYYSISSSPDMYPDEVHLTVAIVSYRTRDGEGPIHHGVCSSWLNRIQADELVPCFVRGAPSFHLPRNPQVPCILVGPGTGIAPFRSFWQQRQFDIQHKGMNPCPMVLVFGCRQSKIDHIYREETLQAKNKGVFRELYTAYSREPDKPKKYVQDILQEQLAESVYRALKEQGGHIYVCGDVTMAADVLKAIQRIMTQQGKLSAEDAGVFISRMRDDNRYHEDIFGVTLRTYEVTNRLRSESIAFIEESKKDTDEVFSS
# assay: biochemical
# conditionLabel: Table 5; read-out: IC50 ncNOS
pIC50: −log10 of the molar value. Counter-ions that a name gives are not always drawn.

As a guide, the following entries are already answered.
compound | subjectOfTest | pIC50
CC1CC(=N)NCC1C1CCCCC1 (mixture of isomers) [acetic acid salt] | ncNOS (Homo sapiens, UniProt P29475) | < 4.30
N=C1CNC2CCCCC2N1 (centres unmarked) | ncNOS (Homo sapiens, UniProt P29475) | ≥ 4.30
COC(=O)C1CNC(=N)CC1C (mixture of isomers) [Table 5: CH, H, CH3, CO2CH3, H, H, H, acetic acid salt] | ncNOS (Homo sapiens, UniProt P29475) | ≥ 4.30
C[C@H]1CC(=N)NC[C@H]1O [Table 5: CH, H, (S)CH3, (S)OH, H, H, H, hydrochloride] | ncNOS (Homo sapiens, UniProt P29475) | ≥ 6.00

The record that follows has no pIC50 shown yet.
stdin: Could you share which pIC50 value was measured for CC1CNC(=N)CC1C (centres unmarked) ?
stdout: ≥ 6.00

====

# subjectOfTest: iNOS (Homo sapiens, UniProt P35228)
# assay: NOS activity assay, iNOS (L-[3H]citrulline formation)
# Format: biochemical
# conditionLabel: Table 4; read-out: IC50 iNOS
pIC50: −log10 of the molar value. Structures can show the parent of a compound that is named as a salt.
Entries and their measured pIC50 follow.

As a guide, the following entries are already answered.
compound | pIC50
CCC1CN=C(N)C1C (stereo not drawn) [Table 4: CH3, C2H5, H, H, H, hydrochloride] | ≥ 6.00
CCC1N=C(N)CC1C (stereo not drawn) [Table 4: H, CH3, C2H5, H, H, hydrochloride] | ≥ 6.00
CC(C)C1CN=C(N)C1 (stereo not drawn) [Table 4: H, i-C3H7, H, H, H, hydrochloride] | ≥ 5.00
CCCC1CC(N)=NC1C (stereo not drawn) [Table 4: H, n-C3H7, CH3, H, H, hydrochloride] | ≥ 4.30
CCC1CN=C(N)C1 (stereo not drawn) [Table 4: H, C2H5, H, H, H, 2-Imino-4-ethylpyrrolidine hydrochloride] | ≥ 6.00
N=C1CC[C@@H]2CCCN12 [Table 4: H, H, (CH2)3, H, 5-(S)-2-Imino-1-aza-bicyclo(3.3.0)octane] | < 4.30

stdin: Could you share which pIC50 value was measured for NC1=NCCC1 [Table 4: H, H, H, H, H, 1-Aza-2-imino-cyclopentane hydrochloride] ?
stdout: ≥ 5.00

stdin: CCCC1CN=C(N)C1 (stereo not drawn) [Table 4: H, n-C3H7, H, H, H, hydrochloride] ?
stdout: ≥ 4.30

stdin: N=C(N)CCNC(=O)C1CCC(=N)N1 (stereo not drawn) ?
stdout: ≥ 5.00

====

Entries and their measured IC50 follow.
# subjectOfTest: ncNOS (Homo sapiens)
# assay: biochemical
# conditionLabel: Table 4; read-out: IC50 ncNOS
Structures can show the parent of a compound that is named as a salt.

As a guide, the following entries are already answered.
molecule | subjectOfTest | reported
N=C1CC[C@@H]2CCCN12 [Table 4: H, H, (CH2)3, H, 5-(S)-2-Imino-1-aza-bicyclo(3.3.0)octane] | ncNOS (Homo sapiens) | ≤ 10 µM
CCCC1CN=C(N)C1 (stereo not shown) [Table 4: H, n-C3H7, H, H, H, hydrochloride] | ncNOS (Homo sapiens) | > 50 µM
CCC1CN=C(N)C1C (stereo not shown) [Table 4: CH3, C2H5, H, H, H, hydrochloride] | ncNOS (Homo sapiens) | ≤ 10 µM

The record that follows has no IC50 shown yet.
stdin: Could you share which IC50 value was measured for N=C1CC[C@H](CO)N1 [Table 4: H, H, (R)-CH2OH, H, H, hydrochloride] ?
stdout: ≤ 50 µM
